test system: P. aeruginosa 2297-con (AmpC derepressed); assay: MIC determination, broth microdilution (CLSI); assay type: cell-based; conditions: Pseudomonas aeruginosa, read-out: strain 8 MIC, strain 8
Recorded MIC for the following compounds
Write it as a number; the unit µg/mL goes unstated.

Below, 10 compounds whose answers are already recorded.
[[record]]
compound = "C[C@H]1[C@H](NC(=O)/C(=N\\OCCOc2ccc(C(=N)N)cc2)c2nc(N)sc2Cl)C(=O)N1S(=O)(=O)O"
reported_value = 16

[[record]]
compound = "CC1(C)[C@H](NC(=O)/C(=N\\OCCCOc2ccc(C(=N)N)cc2)c2csc(N)n2)C(=O)N1OS(=O)(=O)O"
reported_value = 16

[[record]]
compound = "C[C@@H]1[C@H](NC(=O)/C(=N\\OCCCOc2ccc(C(=N)N)cc2)c2csc(N)n2)C(=O)N1S(=O)(=O)O"
reported_value = 32

[[record]]
compound = "C[C@H]1[C@H](NC(=O)/C(=N\\OCC(C)(C)Oc2ccc(C(=N)N)cc2)c2csc(N)n2)C(=O)N1S(=O)(=O)O"
reported_value = 32

[[record]]
compound = "Cc1sc(C(=N)N)nc1OCCO/N=C(\\C(=O)N[C@@H]1C(=O)N(OS(=O)(=O)O)C1(C)C)c1csc(N)n1"
reported_value = 32

[[record]]
compound = "C[C@H]1[C@H](NC(=O)/C(=N\\OC(C)(C)COc2ccc(C(=N)N)cc2)c2csc(N)n2)C(=O)N1S(=O)(=O)O"
reported_value = 16

[[record]]
compound = "CC1(C)[C@H](NC(=O)/C(=N\\OCCOc2ccc(C(=N)N)c(O)c2)c2csc(N)n2)C(=O)N1OS(=O)(=O)O"
reported_value = 4

[[record]]
compound = "CC1(C)[C@H](NC(=O)/C(=N\\OCCOc2ccnc(C(=N)N)c2)c2csc(N)n2)C(=O)N1OS(=O)(=O)O"
reported_value = 8

[[record]]
compound = "C[C@H]1[C@H](NC(=O)/C(=N\\OCCOc2ccc(C(=N)N)cc2)c2nsc(N)n2)C(=O)N1S(=O)(=O)O"
reported_value = 16

[[record]]
compound = "C[C@H]1[C@H](NC(=O)/C(=N\\OCCOc2ccc(NC(=N)N)cc2)c2csc(N)n2)C(=O)N1S(=O)(=O)O"
reported_value = 32


Q) Kindly indicate its recorded MIC. Item: CNCCNC(=N)c1ccc(OC[C@H](O/N=C(\C(=O)N[C@@H]2C(=O)N(OS(=O)(=O)O)C2(C)C)c2csc(N)n2)C(=O)O)cc1
A) 2

Q) Kindly indicate its recorded MIC. Item: CC1(C)[C@H](NC(=O)/C(=N\OCCOc2ccc(C(=N)N)nn2)c2csc(N)n2)C(=O)N1OS(=O)(=O)O
A) 8

Q) Kindly indicate its recorded MIC. Item: C[C@H]1[C@H](NC(=O)/C(=N\OCCOc2cccc(C(=N)N)c2)c2csc(N)n2)C(=O)N1S(=O)(=O)O
A) 32

Q) Kindly indicate its recorded MIC. Item: CC1(C)[C@H](NC(=O)/C(=N\OCCOc2ccc(C(=N)N)cc2)c2csc(N)n2)C(=O)N1OCS(=O)(=O)O
A) 32
